# protocolNotes: NCI Yeast Anticancer Drug Screen. Data for the mlh1 rad18 strain (AID 175)
# conditionsUsed: S. cerevisiae mlh1 rad18 strain growth inhibition; at 50.0 µM (retest, dose inferred, filed as 5.0); active compounds read high
Compounds without any hit were thinned out: in the full panel of roughly 79,000, 15% have a hit. Where a SMILES comes first, the peptide text is derived from it.

| molecule | unitName | growth inhibition |
| --- | --- | --- |
| CN(C)Cc1c(O)ccc2ccccc12 | % | 99 |
| COC(=O)[C@@H](NS(=O)(=O)CC12CCC(CC1)C2(C)C)C(C)(C)C | % | 83 |
| O=c1[nH]c(SCc2c(Cl)c(Cl)c(Cl)c(Cl)c2Cl)nc(=S)[nH]1 | % | 86 |
| CCCc1cc(=O)oc2c3c(c4c(c12)OC(C)(C)CC4)O[C@@H](C)[C@H](C)[C@H]3O | % | 93 |
| CCOc1ccc2ccccc2c1C(Cc1ccc(Cl)cc1)NCCO (stereo not given) | % | 22 |
| O=S(O)CCCCSSCC(O)C(O)CSSCCCCS(=O)O (stereo not given) | % | 33 |
| O=C1CSC(=S)N1c1ccc(F)c(F)c1 | % | 95 |
| CCSSc1ccccc1C(=O)NC(CC)CO (stereo not given) | % | 73 |
| O=C(CC1=Nc2nnc(CCCCCCCc3nnc4n3C(=O)C(CC(=O)c3ccc5ccccc5c3)=N4)n2C1=O)c1ccc2ccccc2c1 | % | 37 |
| CC(C)N1CSC(=S)N(Cc2ccccc2)C1 | % | 66 |
| C=CC(=O)O | % | -1 |
| CCOc1ccc(NC(=O)C(=O)NO)cc1 | % | 87 |
| CCCCCCCCCCCCCCCCOP(=O)(O)OCC(NC(C)=O)C(=O)O (stereo not given) | % | 99 |
| CCCC1=CCCC1 | % | 5 |
| C=CCCC(=O)O | % | 2 |
| Cc1n(-c2ccccc2)c2c([n+]1Cc1ccc([N+](=O)[O-])cc1)C(=O)c1ccccc1C2=O | % | 96 |
| C/C(=N\O)c1cc(Br)cc([N+](=O)[O-])c1O | % | 25 |
| CCCCCCCCCCCCCCCC[N+](C)(C)c1nc(Cl)nc(Cl)n1 | % | 99 |
| O=C(NCCCCCCNC(=O)n1cc(F)c(=O)[nH]c1=O)NCCCOCCOCCOCCOCCOCCOCCOCCOCCOCCOCCOCCOCCOCCOCCOCCOCCOCCOCCOCCOCCOCCCNC(=O)C(O)C(O)C(OC1OC(CO)C(O)C(O)C1O)C(O)CO (stereo not given) | % | 97 |
| C1=C(CN2CCCCC2)COc2ccccc21 | % | 54 |
| O=C1C(=Cc2ccc(O)cc2)N=C(c2ccccc2)N1n1c(-c2ccccc2)nc2ccccc2c1=O | % | 64 |
| O=C1C(CN2CCOCC2)CCCC1CN1CCOCC1 (stereo not given) | % | 97 |
| O=C(COc1ccc(Cl)cc1Cl)Nc1cccc(C(F)(F)F)c1 | % | 10 |
| O=S(=O)(CC(Cl)c1ccccc1)c1nc2ccccc2s1 (stereo not given) | % | -13 |
| CCCCCCCCCCCCCCCCBr | % | -5 |
| c1ccc2c(c1)CC1=C(O2)c2ccccc2OC1 | % | 89 |
| CN=c1sc2nc(C#N)c(C#N)nc2n1C | % | 58 |
| Nc1nccnc1C(=O)O | % | -108 |
| CC(C)C(NC(=O)C(N)CCC(=O)O)C(=O)O (stereo not drawn) (H-Glu-Val-OH; configuration not given here) | % | 4 |
| C[C@@H](O)[C@H]1CC[C@H]2[C@@H]3CCC4=C/C(=N/O)CC[C@]4(C)[C@H]3CC[C@]12C | % | 68 |
| c1ccc2c(c1)[nH]c1c(N3CCOCC3)nnc(N3CCOCC3)c12 | % | -6 |
| CCOC(=O)C1=C(C(=O)c2ccc(OC)cc2)C(c2c(Cl)cccc2Cl)C(C(=O)c2ccc(OC)cc2)=C(C(=O)OCC)N1 | % | 0 |
| O=C(CC1(O)C(=O)Nc2ccccc21)c1ccc(Cl)c(Cl)c1 (stereo not given) | % | 31 |
| Nc1c(C(=O)O)ccc(C(=O)O)c1C(=O)O | % | -123 |
| O=C(CCl)Nc1ccc(C(=O)N/N=C/c2ccc(Cl)cc2)cc1 | % | 80 |
| CC(C)(C)c1ccc(-c2c3ccccc3cc3ccccc23)cc1 | % | 2 |
| C/C(=N\NC(=S)N1CCN(c2ccccn2)CC1)c1nccs1 | % | 99 |
| O=C(O)c1ccccc1C(=O)O | % | 7 |
| CCCC(C)NCCOC(=O)C(c1ccccc1)C1CCCCC1 (stereo not given) | % | 61 |
| COc1cccc2c1C(=O)c1c(O)c3c(c(O)c1C2=O)C[C@@](O)(C(C)=O)C[C@@H]3OC1CC(N(C)C)C(O)C(C)O1 (stereo not given in full) | % | 97 |
| CN(C)c1ccc(/C=C/c2ccc3ccccc3[n+]2C)cc1 | % | 98 |
| CN1C(c2ccccc2)CC(=NOCc2ccccc2)CC1c1ccccc1 (stereo not given) | % | 96 |
| O=C1C(CN(Cc2ccccc2)Cc2ccccc2)CCCC1CN(Cc1ccccc1)Cc1ccccc1 (stereo not given) | % | 58 |
| O=C(CON1C(=O)c2ccccc2C1=O)c1ccccc1 | % | 18 |
| c1ccc(Cc2cc3ccccc3c3ccccc23)cc1 | % | -2 |
